Test system: Mycobacterium tuberculosis
ASSAY TEXT: Antimycobacterial activity against Mycobacterium tuberculosis H37Rv ATCC 27294 by agar dilution method
Type: functional
READOUT LABEL: MIC (µg/mL)
A number alone suffices; assume µg/mL.

Please give the measured MIC for this compound: CO[C@H]1/C=C/O[C@@]2(C)Oc3c(C)c(O)c4c(O)c(c(/C=N/N5CCN(C)CC5)c(O)c4c3C2=O)NC(=O)/C(C)=C\C=C\[C@H](C)[C@H](O)[C@@H](C)[C@@H](O)[C@@H](C)[C@H](OC(C)=O)[C@@H]1C
0.2

Would you mind telling me what MIC value was observed for COc1ccccc1NCC(O)COc1ccc2c(c1)OC1(CCCC1)CC2=O (stereo not given) ?
12.5

Fill in the blank: the reported MIC of Cc1ccccc1NCC(O)COc1ccc2c(c1)OC1(CCCC1)CC2=O (stereo not given) is ____.
12.5

# query: MIC of entry Cc1ccccc1NCC(O)COc1ccc2c(c1)OC1(CCN(C(=O)OC(C)(C)C)CC1)CC2=O (stereo not given)
25
